Measured values drawn from ChEMBL document CHEMBL1156251 for this set.

# system: Lipopolysaccharide (LPS)
# test_details: Displacement of dansyl-PMB from LPS by isothermal titration calorimetry
recorded_endpoint: IC50 (µM)
Express your answer in µM, writing the number without its unit.

In: Suppose we examine the compound CC(C)C[C@@H]1NC(=O)[C@@H](Cc2ccccc2)NC(=O)[C@H](CCN)NC(=O)[C@@H](NC(=O)[C@H](CCN)NC(=O)[C@@H](NC(=O)[C@H](CCN)NC(=O)O)[C@@H](C)O)CCNC(=O)[C@H]([C@@H](C)O)NC(=O)[C@H](CCN)NC(=O)[C@H](CCN)NC1=O [DESFA-[DAB1]POLYMYXIN B] ; what IC50 value has been reported?
Out: 19

In: Would you mind doing CCCCCCCC(=O)N[C@@H](CCN)C(=O)N[C@H](C(=O)N[C@@H](CCN)C(=O)N[C@H]1CCNC(=O)[C@H]([C@@H](C)O)NC(=O)[C@H](CCN)NC(=O)[C@H](CCN)NC(=O)[C@H](CC(C)C)NC(=O)[C@H](Cc2ccccc2)NC(=O)[C@H](CCN)NC1=O)[C@@H](C)O as well?
Out: 10
